- experimentalTarget: bdSUMO^Mut1-MBP fusion protein
// values below are reported cleavage of the SUMO fusion protein
Numeric only. Scale: % cleavage

protein	cleavage of the SUMO fusion protein (% cleavage)
bdSENP1^MutJ (protein) PFVPLTDEDEDNVRHALGGRKESETLSVHEASSIVITREILQCLNDKEWLNDEVINLYLELLKERELREPNKFLKCHFFNTFFYKKLINGGYDYKSVRSWTTTRKLGYNLIDCDKIFVPIHKDVHWCLAVINIKEKKFQYLDSLGYMDMKALRILAKYLVDEVKDKSGKQIDVHAWKQEGVQNLPLQENGWDCGMFMLKYIDFYSRDMELVFGQKHMSYFRRRTAKEILDLKAG	100

Next, consider the following protein.
Quickly give me recorded cleavage of the SUMO fusion protein for bdSENP1^MutK (protein) PFVPLTDEDEDNVRHALGGRKVSETLSVHEASQIVITREILQCLNDKEWLNDEVINLYLELLKERELREPNKFLKCHFFNTFFYKKLINGGYDYKSVRVWTTGRKLGYNLIDCDKIFVPIHKDVHWCLAVINIKEKKFQYLDSLGYMDMKALRILAKYLVDEVKDKSGKQIDVHAWKQEGVQNLPLQENGWDCGMFMLKYIDFYSRDMELVFGQKHMSYFRRRTAKEILDLKAG
100
